target: T1, hNPR1-mFc:hANP or hNPR1-hFc:hANP complex (human, UniProt P01160 124-151); assay: SPR, mAb captured, 25C
T1 construct: also called human NPR1 complexed to ANP
readout_kind: t½ (h)
Hi! Could you send only the number? It should be in h, unit omitted.

[
  {
    "binder": "mAb25479 (antibody, human IgG4, V domains shown) VH: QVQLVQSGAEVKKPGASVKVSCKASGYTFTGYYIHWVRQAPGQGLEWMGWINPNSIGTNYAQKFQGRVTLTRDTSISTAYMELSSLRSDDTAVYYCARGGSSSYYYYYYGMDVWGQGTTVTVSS VL: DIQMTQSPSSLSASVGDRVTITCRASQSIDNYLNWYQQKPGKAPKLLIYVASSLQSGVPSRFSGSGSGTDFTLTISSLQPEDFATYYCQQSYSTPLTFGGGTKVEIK",
    "readout_units": "h",
    "t½": 1.76
  }
]

Query block: For the binder shown here, mAb22033 (antibody, human IgG4, V domains shown) VH: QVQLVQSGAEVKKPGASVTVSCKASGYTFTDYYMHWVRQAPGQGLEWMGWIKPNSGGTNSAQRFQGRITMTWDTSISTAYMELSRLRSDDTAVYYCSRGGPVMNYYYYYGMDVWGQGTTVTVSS VL: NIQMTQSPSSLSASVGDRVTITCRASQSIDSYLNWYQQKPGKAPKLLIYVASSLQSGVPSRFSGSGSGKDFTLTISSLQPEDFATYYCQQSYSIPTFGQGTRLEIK , give the reported t½.
Result block: 2.24

Origin of measurements: patent US20240309103A1
